- system-name: human TRPA1 (Homo sapiens (Human))
- test-name: hTRPA1 CHO Ca2+ FLIPR assay (block of cinnamaldehyde induced calcium influx)
- Format: cell-based
- study-conditions: CHO cells expressing TRPA1; 75 uM cinnamaldehyde; Hill coefficient fixed to 1.5; read-out: hTRPA1 (hTRPA1 CHO Ca2+ MAX EVO (IC50))
Hi there, I'd appreciate the recorded log10 of IC50 for every entry that follows.
Form field - Quantity: IC50; Unit: nM; Scale: log10

Request: Look at this molecule and give its reported log10 of IC50. Cn1cnc2ncn(Cc3nn(CCc4ccc(-c5ccccc5)cc4)c(=O)o3)c(=O)c21 [compound 55]
Response: 2.40

Request: Look at this molecule and give its reported log10 of IC50. Cn1cnc2ncn(Cc3nn(CCc4ccc(C5CC5)cc4)c(=O)o3)c(=O)c21 [compound 16]
Response: 2.55

Request: Look at this molecule and give its reported log10 of IC50. Cn1cnc2ncn(Cc3nn(CCCOc4cccc(F)c4)c(=O)o3)c(=O)c21 [compound 74]
Response: 1.89

Request: Look at this molecule and give its reported log10 of IC50. Cc1ccc(CCn2nc(Cn3cnc4ncn(C)c4c3=O)oc2=O)cc1 [compound 31]
Response: 2.10

Request: Look at this molecule and give its reported log10 of IC50. Cn1cnc2ncn(Cc3nn(C[C@H](F)c4cccc(Cl)c4)c(=O)o3)c(=O)c21 (racemic) [compound 84]
Response: 2.22

Request: Look at this molecule and give its reported log10 of IC50. CN(C)c1ccc(CCn2nc(Cn3cnc4ncn(C)c4c3=O)oc2=O)cc1 [compound 17]
Response: 2.21

Request: Look at this molecule and give its reported log10 of IC50. Cc1ccnc2ncn(Cc3nn([C@H]4C[C@](F)(c5ccc(F)cc5)C4)c(=O)o3)c(=O)c12 [compound 96]
Response: 1.26

Request: Look at this molecule and give its reported log10 of IC50. Cn1cnc2ncn(Cc3nn(CCc4ccc(Cl)cc4F)c(=O)o3)c(=O)c21 [compound 41]
Response: 2.69

Request: Look at this molecule and give its reported log10 of IC50. Cc1cc(C#N)nc2ncn(Cc3nn([C@H]4C[C@H](c5ccc(Cl)cc5)C4)c(=O)o3)c(=O)c12 [compound 93]
Response: 0.68

Request: Look at this molecule and give its reported log10 of IC50. Cc1ccnc2ncn(Cc3nn(CC(F)c4ccc(Cl)cc4)c(=O)o3)c(=O)c12 (stereo in doubt) [compound 34]
Response: 0.70

Request: Look at this molecule and give its reported log10 of IC50. Cn1cnc2ncn(Cc3nn([C@@H]4CC[C@@H](c5ccc(F)cc5)C4)c(=O)o3)c(=O)c21 [compound 92]
Response: 0.92

Request: Look at this molecule and give its reported log10 of IC50. Cn1cnc2ncn(Cc3nn([C@H]4C[C@H](c5ccc(OC(F)F)cc5)C4)c(=O)o3)c(=O)c21 [compound 103]
Response: 1.41

Request: Look at this molecule and give its reported log10 of IC50. Cn1cnc2ncn(Cc3nn(CCc4ccc(Cl)s4)c(=O)o3)c(=O)c21 [compound 21]
Response: 2.46

Request: Look at this molecule and give its reported log10 of IC50. Cn1ccc2cc(CCn3nc(Cn4cnc5ncn(C)c5c4=O)oc3=O)ccc21 [compound 29]
Response: 1.94

Request: Look at this molecule and give its reported log10 of IC50. Cn1cnc2ncn(Cc3nn([C@H]4C[C@H](c5ccc(C(F)(F)F)cc5)C4)c(=O)o3)c(=O)c21 [compound 111]
Response: 1.95

Request: Look at this molecule and give its reported log10 of IC50. Cn1cnc2ncn(Cc3nn([C@H]4C[C@H](c5ccc(Br)cc5)C4)c(=O)o3)c(=O)c21 [compound 52]
Response: 1.30

---

- system-name: human TRPA1 (Homo sapiens (Human), UniProt O75762)
- Sequence (O75762 whole entry): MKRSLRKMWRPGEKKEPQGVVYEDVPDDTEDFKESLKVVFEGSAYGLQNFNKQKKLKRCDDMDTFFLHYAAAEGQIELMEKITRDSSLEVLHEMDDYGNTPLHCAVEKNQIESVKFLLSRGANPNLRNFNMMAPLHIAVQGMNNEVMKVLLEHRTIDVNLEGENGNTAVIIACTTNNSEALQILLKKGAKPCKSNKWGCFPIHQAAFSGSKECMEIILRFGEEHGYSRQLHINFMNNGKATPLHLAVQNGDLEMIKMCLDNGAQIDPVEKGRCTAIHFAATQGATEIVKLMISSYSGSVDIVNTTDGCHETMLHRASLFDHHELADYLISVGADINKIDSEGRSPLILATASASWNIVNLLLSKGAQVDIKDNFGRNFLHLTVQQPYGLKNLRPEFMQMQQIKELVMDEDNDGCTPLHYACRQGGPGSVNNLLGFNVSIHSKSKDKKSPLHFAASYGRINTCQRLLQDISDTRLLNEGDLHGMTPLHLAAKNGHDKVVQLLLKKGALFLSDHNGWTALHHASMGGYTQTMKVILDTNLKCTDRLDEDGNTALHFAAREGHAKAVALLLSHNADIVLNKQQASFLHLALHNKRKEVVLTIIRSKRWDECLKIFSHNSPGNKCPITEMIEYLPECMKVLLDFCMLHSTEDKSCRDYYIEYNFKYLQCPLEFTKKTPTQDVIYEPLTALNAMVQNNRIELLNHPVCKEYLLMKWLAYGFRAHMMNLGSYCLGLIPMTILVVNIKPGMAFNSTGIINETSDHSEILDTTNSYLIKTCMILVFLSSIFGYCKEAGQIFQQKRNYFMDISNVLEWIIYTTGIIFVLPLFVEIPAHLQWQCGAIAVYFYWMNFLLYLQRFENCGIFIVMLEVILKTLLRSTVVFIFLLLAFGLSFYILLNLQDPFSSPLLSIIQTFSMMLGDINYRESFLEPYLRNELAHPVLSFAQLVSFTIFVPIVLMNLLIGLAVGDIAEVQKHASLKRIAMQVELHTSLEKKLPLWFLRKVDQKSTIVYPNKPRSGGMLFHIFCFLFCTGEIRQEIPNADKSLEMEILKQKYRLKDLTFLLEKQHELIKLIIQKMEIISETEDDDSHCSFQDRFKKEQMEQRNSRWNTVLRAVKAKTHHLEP
- test-name: hTRPA1 CHO Ca2+ FLIPR assay (block of cinnamaldehyde induced calcium influx)
- Assay type: cell-based
- study-conditions: repeated from Table 1; read-out: hTRPA1 IC50
readout-kind: IC50 (nM)
Expressed in nM, but write only the number.

Request: Look at this molecule and give its reported IC50. Cn1cnc2ncn(Cc3nn(C[C@@H](F)c4ccc(Cl)cc4)c(=O)o3)c(=O)c21 [Example Compound 14]
Response: 34

Request: Look at this molecule and give its reported IC50. Cn1cnc2ncn(Cc3nn(CCc4ccc(Cl)cc4)c(=O)o3)c(=O)c21 [Example Compound 1]
Response: 95

---

- system-name: human TRPA1 (Homo sapiens (Human), UniProt O75762)
- test-name: hTRPA1 CHO Ca2+ FLIPR assay (block of cinnamaldehyde induced calcium influx)
- Format: cell-based
- study-conditions: CHO cells expressing TRPA1; 75 uM cinnamaldehyde; Hill coefficient fixed to 1.5; read-out: hTRPA1 (hTRPA1 CHO Ca2+ MAX EVO (IC50))
Note to self: IC50 under 30 nM means Fulfilled, ties and anything higher get Not fulfilled.

Request: Does Cn1cnc2c(C#N)nn(Cc3nn(CCc4ccc(OC(F)F)cc4)c(=O)o3)c2c1=O have IC50 strictly under 30 nM?
Response: Not fulfilled

Request: Does O=c1c2cccc(=O)n2ccn1Cc1nn([C@H]2C[C@H](c3ccc(Cl)cc3)C2)c(=O)o1 have IC50 strictly under 30 nM?
Response: Fulfilled

Request: Does Cc1noc2ncn(Cc3nn([C@H]4C[C@H](c5ccc(Cl)cc5)C4)c(=O)o3)c(=O)c12 have IC50 strictly under 30 nM?
Response: Not fulfilled

Request: Does Cc1ccnc2ncn(Cc3nn(CC(F)c4ccc(Cl)cc4)c(=O)o3)c(=O)c12 (stereo in doubt) [compound 33] have IC50 strictly under 30 nM?
Response: Not fulfilled

Request: Does Cc1cc(CCn2nc(Cn3cnc4ncn(C)c4c3=O)oc2=O)ccc1Cl have IC50 strictly under 30 nM?
Response: Not fulfilled

Request: Does Cc1ccnc2ncn(Cc3nn([C@H]4C[C@H](c5ccc6ncccc6c5)C4)c(=O)o3)c(=O)c12 have IC50 strictly under 30 nM?
Response: Fulfilled

Request: Does Cn1cnc2ncn(Cc3nn([C@H]4C[C@H](c5ccccc5)C4)c(=O)o3)c(=O)c21 have IC50 strictly under 30 nM?
Response: Not fulfilled

Request: Does Cc1ccnc2ncn(Cc3nn(CCc4ccc(C#N)cc4)c(=O)o3)c(=O)c12 have IC50 strictly under 30 nM?
Response: Not fulfilled

Request: Does Cn1cnc2ncn(Cc3nn([C@H]4C[C@H](c5ccc6ccccc6c5)C4)c(=O)o3)c(=O)c21 have IC50 strictly under 30 nM?
Response: Fulfilled

Request: Does Cn1cnc2ncn(Cc3nn([C@H]4C[C@](F)(c5ccc(F)cc5)C4)c(=O)o3)c(=O)c21 have IC50 strictly under 30 nM?
Response: Not fulfilled

Request: Does Cn1cnc2ncn(Cc3nn([C@H]4C[C@H](Oc5cccc(F)c5)C4)c(=O)o3)c(=O)c21 have IC50 strictly under 30 nM?
Response: Fulfilled

Request: Does Cn1cnc2ncn(Cc3nn([C@H]4C[C@H](Oc5cccc(Cl)c5)C4)c(=O)o3)c(=O)c21 have IC50 strictly under 30 nM?
Response: Fulfilled

Request: Does Cn1cnc2c(C#N)nn(Cc3nc(CCc4ccc(Cl)cc4)no3)c2c1=O have IC50 strictly under 30 nM?
Response: Fulfilled

Request: Does Cn1c(=O)ccc2ncn(Cc3nn([C@H]4C[C@H](c5ccc(Cl)cc5)C4)c(=O)o3)c(=O)c21 have IC50 strictly under 30 nM?
Response: Fulfilled

Request: Does Cn1cnc2ncn(Cc3nn(C[C@@H](F)c4ccc(Cl)cc4)c(=O)o3)c(=O)c21 have IC50 strictly under 30 nM?
Response: Not fulfilled

Request: Does Cn1cnc2ncn(Cc3nn(CCc4ccc(Br)cc4)c(=O)o3)c(=O)c21 have IC50 strictly under 30 nM?
Response: Not fulfilled

---

- system-name: human TRPA1 (Homo sapiens (Human), UniProt O75762)
- test-name: hTRPA1 CHO Ca2+ FLIPR assay (block of cinnamaldehyde induced calcium influx)
- Assay type: cell-based
- study-conditions: CHO cells expressing TRPA1; 75 uM cinnamaldehyde; Hill coefficient fixed to 1.5; read-out: hTRPA1 (hTRPA1 CHO Ca2+ MAX EVO (IC50))
readout-kind: pIC50
Please express pIC50 as -log10 of the molar concentration.

Request: Look at this molecule and give its reported pIC50. O=c1c2c(Cl)ccnc2ncn1Cc1nn([C@H]2C[C@H](c3ccc(Cl)cc3)C2)c(=O)o1
Response: 8.23

Request: Look at this molecule and give its reported pIC50. Cc1cc(C#N)nc2ncn(Cc3nn([C@H]4C[C@](F)(c5ccc(F)cc5)C4)c(=O)o3)c(=O)c12
Response: 7.95

Request: Look at this molecule and give its reported pIC50. Cc1ccnc2ncn(Cc3nn([C@H]4C[C@H](c5ccc(F)cc5)C4)c(=O)o3)c(=O)c12
Response: 8.24

Request: Look at this molecule and give its reported pIC50. Cn1cnc2c(C#N)nn(Cc3nn(CCc4ccc(Cl)cc4)c(=O)o3)c2c1=O
Response: 7.85
